systemTested: UniProt:Q07969
Sequence (Q07969 whole entry): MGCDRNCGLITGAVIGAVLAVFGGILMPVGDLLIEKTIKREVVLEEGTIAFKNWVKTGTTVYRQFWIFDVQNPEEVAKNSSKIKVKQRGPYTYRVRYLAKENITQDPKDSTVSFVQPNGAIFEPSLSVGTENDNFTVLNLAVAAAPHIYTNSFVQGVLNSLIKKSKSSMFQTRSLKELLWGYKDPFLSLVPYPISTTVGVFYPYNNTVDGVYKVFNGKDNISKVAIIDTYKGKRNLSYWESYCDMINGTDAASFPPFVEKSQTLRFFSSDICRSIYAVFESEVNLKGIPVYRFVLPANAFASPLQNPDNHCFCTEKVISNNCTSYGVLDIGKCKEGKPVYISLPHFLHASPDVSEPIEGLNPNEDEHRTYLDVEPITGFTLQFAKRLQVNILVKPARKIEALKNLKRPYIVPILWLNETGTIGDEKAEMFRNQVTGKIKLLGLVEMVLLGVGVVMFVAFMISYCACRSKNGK
testDescription: CD36 receptor covalent photolabelling binding assay, competition with [125I]Tyr-Bpa-Ala-hexarelin on rat cardiac membranes
experimentalParameters: Table 6; read-out: IC50 Binding CD36
Method: The hearts from Sprague Dawley rats (300 g-325 g) from Charles River, used as a source of cardiac membranes, were prepared as follows: the heart was washed with ice-cold saline, and fatty and connective tissue was removed. […] Protein concentration was determined with bicinchoninic acid (BCA) method, using BSA as standard. […] Nonspecific binding was defined as binding not displaced by 50 μM corresponding peptide. […] Protein bands were quantified by densitometry. […]
Starred links: 1 amine or outer side, 2 acyl side, 3 side chain; linkers in the order of their positions; H or OH if unused. Non-standard residues stand in square brackets, D forms with d. Residues, ends and D or L forms follow the SMILES beside them. azaTyr = O=C(N(Cc1ccc(O)cc1)N[*:1])[*:2]; azaPhe = O=C(N(Cc1ccccc1)N[*:1])[*:2]; azaLeu = CC(C)CN(N[*:1])C(=O)[*:2]
measurementLabel: pIC50
Keep in mind that pIC50 stands for -log10 of concentration in molar terms.

Challenge: Give recorded pIC50. C[C@H](NC(=O)[C@@H](Cc1c[nH]c2ccccc12)NC(=O)[C@@H](N)Cc1ccccc1)C(=O)NN(Cc1ccc(O)cc1)C(=O)N[C@H](Cc1ccccc1)C(=O)N[C@@H](CCCCN)C(N)=O [ZS554-F29, Phe-D-Trp-Ala-azaTyr-D-Phe-Lys-NH2] (H-F[dW]A[azaTyr][dF]K-NH2)
Response given: 4.93

Challenge: Give recorded pIC50. C[C@H](N)C(=O)NN(Cc1ccc(O)cc1)C(=O)N[C@@H](C)C(=O)N[C@@H](Cc1c[nH]c2ccccc12)C(=O)N[C@H](Cc1ccccc1)C(=O)N[C@@H](CCCCN)C(N)=O [CP-1B (iv), Ala-AzaTyr-Ala-Trp-D-Phe-Lys-NH2] (H-A[azaTyr]AW[dF]K-NH2)
Response given: 4.76

Challenge: Give recorded pIC50. CC(C)CN(NC(=O)[C@@H](Cc1c[nH]c2ccccc12)NC(=O)[C@@H](N)Cc1cnc[nH]1)C(=O)N[C@@H](Cc1c[nH]c2ccccc12)C(=O)N[C@H](Cc1ccccc1)C(=O)N[C@@H](C)C(N)=O [CP-2B (i), His-D-Trp-azaLeu-Trp-D-Phe-Ala-NH2] (H-H[dW][azaLeu]W[dF]A-NH2)
Response given: 5.04

Challenge: Give recorded pIC50. C[C@H](NC(=O)[C@H](C)NC(=O)N(Cc1ccccc1)NC(=O)[C@@H](N)Cc1cnc[nH]1)C(=O)N[C@H](Cc1ccccc1)C(=O)N[C@@H](CCCCN)C(N)=O [CP-1A (iii), (D/L)His-azaPhe-Ala-Ala-D-Phe-Lys-NH2] (H-H[azaPhe]AA[dF]K-NH2)
Response given: 4.56

Challenge: Give recorded pIC50. CC(C)CN(NC(=O)[C@@H](Cc1c[nH]c2ccccc12)NC(=O)[C@H](C)N)C(=O)N[C@@H](Cc1c[nH]c2ccccc12)C(=O)N[C@H](Cc1ccccc1)C(=O)N[C@@H](CCCCN)C(N)=O [CP-2B (v), Ala-D-Trp-azaLeu-Trp-D-Phe-Lys-NH2] (H-A[dW][azaLeu]W[dF]K-NH2)
Response given: 5.43

Challenge: Give recorded pIC50. CC(C)CN(NC(=O)[C@@H](Cc1c[nH]c2ccccc12)NC(=O)[C@@H](N)Cc1cnc[nH]1)C(=O)N[C@@H](Cc1c[nH]c2ccccc12)C(=O)N[C@H](C)C(=O)N[C@@H](CCCCN)C(N)=O [CP-2B (ii), His-D-Trp-azaLeu-Trp-D-Ala-Lys-NH2] (H-H[dW][azaLeu]W[dA]K-NH2)
Response given: 5.31

Challenge: Give recorded pIC50. CC(C)CN(NC(=O)[C@@H](Cc1c[nH]c2ccccc12)NC(=O)[C@@H](N)Cc1cnc[nH]1)C(=O)N[C@@H](C)C(=O)N[C@H](Cc1ccccc1)C(=O)N[C@@H](CCCCN)C(N)=O [CP-2B (iii), His-D-Trp-azaLeu-Ala-D-Phe-Lys-NH2] (H-H[dW][azaLeu]A[dF]K-NH2)
Response given: 5.02
